Source: patent US20240059759A1

- SYSTEM TESTED: SARS-CoV-2 Spike RBD-His Tag, Sino Biological (SARS-CoV-2)
MEASURE: xmid (log10)
Give only the figure.

Example entries and their recorded answers appear below.
{"BINDER": "vhh_tstrep_sars2_pjl1_L_118 (VHH) VHH: QVQLQESGGGLVQAGGSLRLSCAASGRTFSEYAMGWFRQAPGKEREFVATISWSGGATGHTDSVKGRFTISRDNAKNTVYLQMNSLKPDDTAVYYCAAAGLGTVVSEWDYDYDYWGQGTQVTVSS", "xmid (log10)": 0.784}
{"BINDER": "vhh_tstrep_sars2_pjl1_L_127 (VHH) VHH: QVQLQESGGGLVQAGGSLRLSCAASGRTFSEYAMGWFRQAPGKEREFVATISWSGGAAYHTDSVKGRFTISRDNAKNTVYLQMNSLKPDDTAVYYCAAAGLGTVVSEWDYDYDYWGQGTQVTVSS", "xmid (log10)": 0.479}
{"BINDER": "vhh_tstrep_sars2_pjl1_L_119 (VHH) VHH: QVQLQESGGGLVQAGGSLRLSCAASGRTFSEYAMGWFRQAPGKEREFVATESWSGGATYHTDSVKGRFTISRDNAKNTVYLQMNSLKPDDTAVYYCAAAGLGTVVSEWDYDYDYWGQGTQVTVSS", "xmid (log10)": 0.385}

Turning to the following binder.
In one line, give reported xmid (log10) of the entry vhh_tstrep_sars2_pjl1_L_117 (VHH) VHH: QVQLQESGGGLVQAGGSLRLSCAASGRTFSEYAMGWFRQAPGKEREFVATISWSGGATYHTWSVKGRFTISRDNAKNTVYLQMNSLKPDDTAVYYCAAAGLGTVVSEWDYDYDYWGQGTQVTVSS .
-1.7
